Recorded sandwich binding signal for the following binders
Target: T1, recombinant soluble human TREM2 protein (human TREM2 ECD-FlagHis) (human, UniProt Q9NZC2 19-174)
T1 sequence: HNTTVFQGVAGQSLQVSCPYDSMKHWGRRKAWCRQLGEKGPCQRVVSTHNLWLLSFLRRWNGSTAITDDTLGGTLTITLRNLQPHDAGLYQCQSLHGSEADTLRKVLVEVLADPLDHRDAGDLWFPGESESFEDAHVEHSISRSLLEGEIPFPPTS
Test: Octet BLI binning; competitor: load Ab 5E3
Note: the reply should be a number with no unit written.

Consider the reported sandwich binding signal for these binders:
5E3 (antibody, human IgG2, V domains shown, human IgG2 from hybridoma) VH: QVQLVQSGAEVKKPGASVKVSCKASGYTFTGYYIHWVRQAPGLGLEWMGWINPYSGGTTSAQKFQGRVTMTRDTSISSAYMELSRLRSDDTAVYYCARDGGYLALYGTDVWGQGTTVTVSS VL: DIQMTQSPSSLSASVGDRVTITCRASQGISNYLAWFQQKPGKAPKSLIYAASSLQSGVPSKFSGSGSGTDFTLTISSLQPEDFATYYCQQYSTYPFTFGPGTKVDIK	-0.165
10E3 (antibody, human IgG2, V domains shown, human IgG2 from hybridoma) VH: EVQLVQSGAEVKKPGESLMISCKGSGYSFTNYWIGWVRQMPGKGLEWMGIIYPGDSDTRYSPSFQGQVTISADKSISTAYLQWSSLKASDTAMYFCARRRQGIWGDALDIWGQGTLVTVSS VL: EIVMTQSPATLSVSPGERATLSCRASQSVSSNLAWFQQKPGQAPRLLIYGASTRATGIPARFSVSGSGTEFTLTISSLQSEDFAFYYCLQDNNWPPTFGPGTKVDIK	0.415

Fill blank: measured sandwich binding signal of the binder 16B8 (antibody, human IgG4, V domains shown, human IgG4 (G4) from hybridoma) VH: QVQLVQSGAEVKKPGASVKVSCKASGYTFTNYGISWVRQAPGQGLEWMGWISAYNGNTNYAQKLQGRVTMTTDTSTSTVYMELRSLRSDDTAVYYCARRGYSYGSFDYWGQGTLVTVSS VL: DIQMTQSPSSVSASVGDRVTVTCRASQDINSWLAWYQQKPGKAPKLLIYAASSLQTGVPSRFSGSGSGTDFTLTISSLQPEDFATYSCQQSNSFPITFGQGTRLEIK is ____.
-0.004

Follow-up item: 26C10 (antibody, human IgG2, V domains shown, human IgG2 from hybridoma) VH: EVQLVESGGALVQPGGSLRLSCAASGFTFSSFGMSWVRQAPGKGLEWVSYISSSSFTIYYADSVKGRFTISRDNAKNSFYLQMNSLRDEDTAVYFCVREGGITMVRGVSSYGMDVWGQGTTVTVSS VL: SFELTQPPSVSVSPGQTASITCSGDKLGDKYVCWYQQKPGQSPMLVIYQDTKRPSGIPERFSGSNSGNTATLTISGTQAMDEADYYCQAWDSSTVVFGGGTKLTVL
-0.042

Also need 6E7 (antibody, human IgG2, V domains shown, human IgG2 from hybridoma) VH: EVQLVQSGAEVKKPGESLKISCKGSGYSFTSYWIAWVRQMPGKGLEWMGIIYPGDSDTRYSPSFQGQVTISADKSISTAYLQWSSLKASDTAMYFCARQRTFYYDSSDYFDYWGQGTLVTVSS VL: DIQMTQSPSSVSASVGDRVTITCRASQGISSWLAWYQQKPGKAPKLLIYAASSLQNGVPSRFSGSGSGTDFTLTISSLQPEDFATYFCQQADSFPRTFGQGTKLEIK , thanks.
0.565
